tested system: T1, OsCS aa 316-583 (Oryza sativa, UniProt A2Y0X2 316-583)
T1 construct: bait, Gal4 DBD fusion; also called PN19707
T1 sequence: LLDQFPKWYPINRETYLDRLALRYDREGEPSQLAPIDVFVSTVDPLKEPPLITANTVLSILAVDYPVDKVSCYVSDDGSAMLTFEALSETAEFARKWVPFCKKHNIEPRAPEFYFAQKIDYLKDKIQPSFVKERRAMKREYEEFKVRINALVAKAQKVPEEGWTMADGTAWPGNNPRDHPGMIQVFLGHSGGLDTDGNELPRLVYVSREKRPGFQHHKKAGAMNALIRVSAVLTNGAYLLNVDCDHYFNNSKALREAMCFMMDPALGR
assay name: Y2H; output trait library

binder	binding result
OsPN29076 aa 1-187 (other, prey, AD fusion; also called Novel Protein PN29076, Fragment) ERDISMVNSYPPSAFDCKGWNSASIFIYESDEEIQCLLDWLRDYDPREKELKDSILQWQRHFCHQSSSPLVDPPISGPKGEQLMELPNTKAAVILEQKYGLQLDQDTSDLPKKRGKKIKLSSEDRTYRCDCLEPVWPSRYHCLTCHETYLISTEFEGHNDGKCSKIHQSPDESRENDEPKVKVTKSD	binds
OsPIP2A aa 123-290 (other, prey, AD fusion; also called PN29098; O. sativa Aquaporin) RKVSLVRAILYIVAQCLGAICGVGLVNAFPNAYFNRYGGGANTLAAGYSKGTGLAAEIIGTFVLVYTVFSATDPKRNARDSHVPVLAPLPIGFAVFMVHLATIPITGTGINPARSIGAAVIFNNEKAWHNHWIFWVGPFVGAAIAAFYHQYILRAGAIKALGSFRSNA	binds
OsPN29115 aa 1-188 (other, prey, AD fusion; also called Novel Protein PN29115, Fragment, Similar to A. thaliana 6,7-Dimethyl-8-Ribityllumazine Synthase Precursor) VSFPYSPRPAALAAGARASRVSPVVVAAGGGHQRLMGSLTNTQGLRFGVVVARFNEIVTNLLLQGALETFERYSVKKENITVLSVPGSFEIPVAAQKLGKSGKFDANFVHWRCAFRGDTTHYGAVANSAASGVLSAGLSAEIPCIFGVLTCDDMDQALNRAGGKAGNKGAEAALTAIEMASLFQHHLA	binds
